Test: PAMPA-BBB model
Assay type: in vitro ADME
Details: PAMPA, pH 7.4
Procedure: The methodology herein applied was similar to that described in the previous section, however with the purpose of assessing the permeability of the compounds through the blood brain barrier (BBB). Thus, stock solutions (10 mM) of each test compound were prepared in DMSO and diluted with phosphate buffered saline (PBS) at pH 7.4. The final concentration of donor solutions was 300 μM and DMSO of 5%. […]
Rule: Papp at 16 h, 300 µM under 0.6 ×10⁻⁶ cm/s gives NO, otherwise YES.

Here are 8 compounds together with their reported answers.
>>> label_value("C=CCOc1ccc(C=O)cc1OC")
"YES"
>>> label_value("C/C=C/c1cc(OC)c2c(c1)[C@H](C)[C@@H](c1cc(OC)c3oc(C)cc3c1)O2")
"NO"
>>> label_value("C=CCOc1ccc(CC=C)cc1OC")
"NO"
>>> label_value("COc1cc(C=O)ccc1OC(C)=O [2b, (4-formyl-2-methoxy-phenyl) acetate]")
"YES"
>>> label_value("C=CCc1cc(CO)cc(OC)c1O")
"YES"
>>> label_value("C=CCc1cc(C=O)cc(OC)c1O [2d, 3-allyl-4-hydroxy-5-methoxy-benzaldehyde]")
"YES"
>>> label_value("C=CCOc1ccc([C@H]2Oc3c(OC)cc(/C=C/C)cc3[C@@H]2C)cc1OC")
"NO"
>>> label_value("C=CCOc1ccc(CO)cc1OC")
"YES"

[ask] Hi, just wondering whether COc1cc(CO)ccc1OC(C)=O shows Papp at 16 h, 300 µM of 0.6 ×10⁻⁶ cm/s or higher.
[reply] YES

----------
Test: PAMPA intestinal model (GIT)
Type: in vitro ADME
Conditions: PAMPA intestinal model, 300 µM donor, Tris buffer, 25 °C, 16 h; read-out: Papp GIT
# cutoff 2 ×10⁻⁶ cm/s applies to Papp at 16 h, 300 µM; >= gives T, < gives F

>>> label_value("C=CCc1ccc(OC)c(OC)c1")
"T"
>>> label_value("C/C=C/c1ccc(OC)c(OC)c1 [4a, 1,2-dimethoxy-4-[(E)-prop-1-enyl]benzene]")
"T"
>>> label_value("COc1ccc(C=O)cc1OC")
"T"
>>> label_value("COc1cc(C=O)ccc1O")
"F"
>>> label_value("COc1ccc(CO)cc1OC")
"T"

Okay, now this compound:
[ask] Could you verify whether the entry C=CCc1ccc(O)c(OC)c1 shows Papp at 16 h, 300 µM of no less than 2 ×10⁻⁶ cm/s?
[reply] T

----------
Can you tell me Papp at 16 h, 300 µM for the items I'm about to list?
Assay: PAMPA intestinal model (GIT)
Type: in vitro ADME
Conditions: PAMPA
Give bare numbers, in ×10⁻⁶ cm/s.

Known results for compounds:
>>> recorded_value("C=CCc1ccc(OC(C)=O)c(OC)c1 [5b, (4-allyl-2-methoxy-phenyl) acetate]")
2.81
>>> recorded_value("C=CCc1cc(CO)cc(OC)c1O")
3.47
>>> recorded_value("COc1cc(C=O)ccc1OC(C)=O [2b, (4-formyl-2-methoxy-phenyl) acetate]")
17.4
>>> recorded_value("C/C=C/c1cc(OC)c2c(c1)[C@H](C)[C@@H](c1cc(OC)c3oc(C)cc3c1)O2")
0.55

Field: next compound
[ask] Look up Papp at 16 h, 300 µM: C/C=C/c1cc(OC)c2c(c1)[C@H](C)[C@@H](c1ccc(OC(C)=O)c(OC)c1)O2
[reply] 1.02

----------
Provide the recorded Papp at 16 h, 300 µM for the entries that follow.
Experiment: PAMPA intestinal model (GIT)
Assay type: in vitro ADME
Details: PAMPA
One number for each entry, in ×10⁻⁶ cm/s.

>>> recorded_value("C=CCc1cc(/C=C/C)cc(OC)c1O")
1.2
>>> recorded_value("COc1cc(CO)ccc1OC(C)=O")
5.07
>>> recorded_value("C/C=C/c1cc(OC)c2c(c1)[C@H](C)[C@@H](c1ccc(OC)c(OC)c1)O2")
0.42
>>> recorded_value("COc1cc(CO)ccc1O")
0.18
>>> recorded_value("C=CCOc1ccc(CO)cc1OC")
1.9
>>> recorded_value("C/C=C/c1cc(OC)c2c(c1)[C@H](C)[C@@H](c1ccc(O)c(OC)c1)O2")
0.85
>>> recorded_value("C=CCOc1ccc(C=O)cc1OC")
1.6
>>> recorded_value("C=CCc1cc([C@H]2Oc3c(OC)cc(/C=C/C)cc3[C@@H]2C)cc(OC)c1O")
0.38
>>> recorded_value("C=CCc1cc(CC=C)c(O)c(OC)c1")
0.65
>>> recorded_value("C=CCOc1ccc(CC=C)cc1OC")
1.21

Return reported Papp at 16 h, 300 µM values for all items listed beneath this line.
1. C=CCOc1ccc(/C=C/C)cc1OC
2. C=CCOc1ccc([C@H]2Oc3c(OC)cc(/C=C/C)cc3[C@@H]2C)cc1OC
3. C/C=C/c1ccc(OC(C)=O)c(OC)c1
4. C=CCc1cc(C=O)cc(OC)c1O [2d, 3-allyl-4-hydroxy-5-methoxy-benzaldehyde]

[reply]
0.13
0.43
15
1.57

----------
Assay: PAMPA-BBB model
Type: in vitro ADME
Conditions: PAMPA, pH 7.4
Method: The methodology herein applied was similar to that described in the previous section, however with the purpose of assessing the permeability of the compounds through the blood brain barrier (BBB). Thus, stock solutions (10 mM) of each test compound were prepared in DMSO and diluted with phosphate buffered saline (PBS) at pH 7.4. The final concentration of donor solutions was 300 μM and DMSO of 5%. […]
I'd be grateful if you could share measured Papp at 16 h, 300 µM for these entries.
Report field: quantity (unit follows the number).

>>> recorded_value("C=CCc1cc(CC=C)c(O)c(OC)c1 [5d, 2,4-diallyl-6-methoxy-phenol]")
"0.32 ×10⁻⁶ cm/s"
>>> recorded_value("C=CCc1cc(/C=C/C)cc(OC)c1O [4d]")
"0.74 ×10⁻⁶ cm/s"
>>> recorded_value("C/C=C/c1cc(OC)c2c(c1)[C@H](C)[C@@H](c1ccc(OC)c(OC)c1)O2 [1a]")
"4.26 ×10⁻⁶ cm/s"
>>> recorded_value("C=CCOc1ccc(/C=C/C)cc1OC [4c]")
"0.2 ×10⁻⁶ cm/s"

Provide Papp at 16 h, 300 µM for all items below, preserving their order.
1. COc1cc(CO)ccc1O [compound 3, vanillyl alcohol]
2. C=CCc1ccc(OC(C)=O)c(OC)c1 [5b, (4-allyl-2-methoxy-phenyl) acetate]
3. C/C=C/c1cc(OC)c2c(c1)[C@H](C)[C@@H](c1ccc(OC(C)=O)c(OC)c1)O2 [1b]
4. C/C=C/c1ccc(OC(C)=O)c(OC)c1 [4b]
5. C/C=C/c1cc(OC)c2c(c1)[C@H](C)[C@@H](c1ccc(O)c(OC)c1)O2 [compound 1, Licarin A]
6. C=CCc1cc([C@H]2Oc3c(OC)cc(/C=C/C)cc3[C@@H]2C)cc(OC)c1O [1d]

[reply]
["0.64 ×10⁻⁶ cm/s", "2.28 ×10⁻⁶ cm/s", "0.34 ×10⁻⁶ cm/s", "1.32 ×10⁻⁶ cm/s", "2.37 ×10⁻⁶ cm/s", "0.28 ×10⁻⁶ cm/s"]

Data provenance is paper PMC7096397.
